Values from patent US20240374573A1

TEST TARGET: α2AAR (Homo sapiens)
Construct: host or cells: HEK293 (membranes)
Sequence (P08913 whole entry, species assumed): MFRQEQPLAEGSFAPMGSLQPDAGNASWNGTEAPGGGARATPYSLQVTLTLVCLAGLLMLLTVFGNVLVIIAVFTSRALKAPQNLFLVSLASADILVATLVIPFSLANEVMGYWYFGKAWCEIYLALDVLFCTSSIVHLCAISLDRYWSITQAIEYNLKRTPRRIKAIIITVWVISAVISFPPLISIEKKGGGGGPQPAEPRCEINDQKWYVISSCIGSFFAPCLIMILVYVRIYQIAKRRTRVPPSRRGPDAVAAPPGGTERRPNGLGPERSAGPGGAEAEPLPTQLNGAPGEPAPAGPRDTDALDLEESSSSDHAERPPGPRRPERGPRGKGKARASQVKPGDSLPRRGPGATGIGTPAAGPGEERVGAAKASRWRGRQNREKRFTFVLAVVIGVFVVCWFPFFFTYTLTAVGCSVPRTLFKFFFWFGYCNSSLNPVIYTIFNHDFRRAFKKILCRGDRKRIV
METHOD SUMMARY: α2AAR binding assay ([3H]-RX 821002 radioligand)
TEST PARAMETERS: [3H]-RX 821002 0.5 nM, HEK293 membranes; read-out: α2A affinity (Ki)
VALUE KIND: Ki

Fill in the blank: the reported Ki of Cc1cn(-c2ccc(CC(c3c[nH]cn3)c3cccc(C)c3C)cc2)nn1 (stereo not shown) [compound 211] is ____.
< 10 nM

Fill in the blank: the reported Ki of CSCCC(=O)Nc1cccc(C(c2c[nH]cn2)c2cccc(C)c2C)c1 (stereo not shown) [compound 63] is ____.
10 to 50 nM

Fill in the blank: the reported Ki of Cc1cccc(C(c2cccc(NC(=O)CCC(N)=O)c2)c2c[nH]cn2)c1C (stereo not shown) [compound 42] is ____.
50 to 250 nM

Fill in the blank: the reported Ki of Cc1cccc(C(Cc2ccc(NC(=O)C3CCOCC3)cc2)c2c[nH]cn2)c1C (stereo not shown) [compound 157] is ____.
< 10 nM

Fill in the blank: the reported Ki of CNS(=O)(=O)c1cccc(C(c2c[nH]cn2)c2cccc(C)c2C)c1 (stereo not shown) [compound 28] is ____.
10 to 50 nM

Fill in the blank: the reported Ki of Cc1cccc(C(c2cccc(NC(=O)N3CCCCC3)c2)c2c[nH]cn2)c1C (stereo not shown) [compound 180] is ____.
10 to 50 nM

Fill in the blank: the reported Ki of Cc1cccc(C(c2cccc(OCCC#N)c2)c2c[nH]cn2)c1C (stereo not shown) [compound 48] is ____.
> 1000 nM

Fill in the blank: the reported Ki of Cc1cccc(C(Cc2ccc(NC(=O)NC3CCOCC3)cc2)c2c[nH]cn2)c1C (stereo not shown) [compound 205] is ____.
< 10 nM

Fill in the blank: the reported Ki of Cc1cccc(C(CC23CC4CC(C2)CC(C(N)=O)(C4)C3)c2c[nH]cn2)c1C (stereo not shown) [compound 188] is ____.
> 1000 nM

Fill in the blank: the reported Ki of Cc1cccc(C(Cc2ccc(NC(=O)CC3CCCCC3)cc2)c2c[nH]cn2)c1C (stereo not shown) [compound 181] is ____.
< 10 nM

Fill in the blank: the reported Ki of Cc1cccc(C(Cc2ccc(C(=O)O)c(F)c2)c2c[nH]cn2)c1C (stereo not shown) [compound 197] is ____.
50 to 250 nM

Fill in the blank: the reported Ki of Cc1cccc(C(c2c[nH]cn2)c2cccc(C(N)=O)c2F)c1C (stereo not shown) [compound 27] is ____.
< 10 nM

Fill in the blank: the reported Ki of Cc1cccc(C(c2cccc(NCCC#N)c2)c2c[nH]cn2)c1C (stereo not shown) [compound 32] is ____.
50 to 250 nM

Fill in the blank: the reported Ki of COCCCC(=O)Nc1cccc(C(c2c[nH]cn2)c2cccc(C)c2C)c1 (stereo not shown) [compound 148] is ____.
10 to 50 nM

Fill in the blank: the reported Ki of Cc1cccc(C(Cc2ccc(C(=O)NC3CCOCC3)nc2)c2c[nH]cn2)c1C (stereo not shown) [compound 186] is ____.
10 to 50 nM

Fill in the blank: the reported Ki of Cc1cccc(C(c2cccc(NS(=O)(=O)C(F)(F)F)c2)c2c[nH]cn2)c1C (stereo not shown) [compound 77] is ____.
250 to 1000 nM

Fill in the blank: the reported Ki of COc1ccc(CC(c2c[nH]cn2)c2cccc(C)c2C)cc1OC (stereo not shown) [compound 224] is ____.
< 10 nM

Fill in the blank: the reported Ki of Cc1cccc(C(Cc2ccc(S(C)(=O)=O)cc2)c2c[nH]cn2)c1C (stereo not shown) [compound 232] is ____.
< 10 nM

Fill in the blank: the reported Ki of CS(=O)(=O)Nc1cccc(CC(C2=NCCN2)c2c(Cl)cccc2Cl)c1 (stereo not shown) [compound 501] is ____.
250 to 1000 nM

Fill in the blank: the reported Ki of Cc1cn(-c2cccc(C(c3c[nH]cn3)c3cccc(C)c3C)c2)nn1 (stereo not shown) [compound 160] is ____.
10 to 50 nM

Fill in the blank: the reported Ki of Cc1cccc(C(c2cccc(NS(C)(=O)=O)c2)c2c[nH]cn2)c1C (single isomer, unassigned) [44-B] is ____.
< 10 nM

Fill in the blank: the reported Ki of Cc1cccc(C(Cc2ccc(NC3CCOCC3)cc2)c2c[nH]cn2)c1C (stereo not shown) [compound 207] is ____.
< 10 nM

Fill in the blank: the reported Ki of Cc1cccc(C(Cc2ccc(NC(=O)C3COC3)cc2)c2c[nH]cn2)c1C (stereo not shown) [compound 200] is ____.
< 10 nM

Fill in the blank: the reported Ki of Cc1cccc(C(Cc2cccc(NS(C)(=O)=O)c2)C2=NCCN2)c1C (stereo not shown) [compound 510] is ____.
50 to 250 nM

Fill in the blank: the reported Ki of Cc1cccc(C(Cc2ccc(NC(=O)N(C)C3CCOC3)cc2)c2c[nH]cn2)c1C (stereo not shown) [compound 245] is ____.
< 10 nM

Fill in the blank: the reported Ki of Cc1cccc(C(c2cccc(NS(=O)(=O)CC3CCOCC3)c2)c2c[nH]cn2)c1C (stereo not shown) [compound 119] is ____.
< 10 nM

Fill in the blank: the reported Ki of Cc1cccc(C(CCc2ccccc2NS(C)(=O)=O)c2c[nH]cn2)c1C (stereo not shown) [compound 183] is ____.
250 to 1000 nM

Fill in the blank: the reported Ki of CC(=O)Nc1cccc(C(c2c[nH]cn2)c2cccc(C)c2C)c1 (stereo not shown) [compound 30] is ____.
50 to 250 nM

Fill in the blank: the reported Ki of Cc1cccc(C(NC2=NCCS2)c2cccc(NC(=O)CC3CCOCC3)c2)c1C (stereo not shown) [compound 507] is ____.
10 to 50 nM

Fill in the blank: the reported Ki of Cc1cccc(C(Cc2ccc3c(c2)OCCO3)c2c[nH]cn2)c1C (stereo not shown) [compound 196] is ____.
< 10 nM

Fill in the blank: the reported Ki of Cc1cccc(C(Cc2ccc(S(N)(=O)=O)cc2)c2c[nH]cn2)c1C (stereo not shown) [compound 217] is ____.
< 10 nM

Fill in the blank: the reported Ki of Cc1cccc(C(Cc2cccc(NC(=O)CC3CCOCC3)c2)c2c[nH]cn2)c1C (stereo not shown) [compound 108] is ____.
< 10 nM

Fill in the blank: the reported Ki of Cc1cccc(C(c2c[nH]cn2)c2cccc(C(=O)NCC3CCOCC3)c2F)c1C (single isomer, unassigned) [124-B] is ____.
< 10 nM

Fill in the blank: the reported Ki of Cc1cccc(C(Cc2ccc(C(=O)NC3CCOCC3)c(O)c2)c2c[nH]cn2)c1C (stereo not shown) [compound 233] is ____.
10 to 50 nM

====

TEST TARGET: α2AAR (α2A-adrenergic receptor) (Homo sapiens, UniProt P08913)
Construct: expressed in transfected cells; host or cells: HEK293
Sequence (P08913 whole entry, species assumed): as above
METHOD SUMMARY: α2AAR FLIPR assay (agonist activity)
Format: cell-based
TEST PARAMETERS: FLIPR, α2AAR cell line hosted in HEK293 cells; read-out: α2A agonist activity (EC50)
Would you kindly list EC50 for each of these compounds?

Fill in the blank: the reported EC50 of Cc1cccc(C(c2cccc(NC(=O)CCC#N)c2)c2c[nH]cn2)c1C (single isomer, unassigned) [43-B] is ____.
10 to 50 nM

Fill in the blank: the reported EC50 of Cc1cccc(C(Cc2cccc(NS(C)(=O)=O)c2)c2c[nH]cn2)c1C (centres unmarked) [compound 76] is ____.
50 to 250 nM

Fill in the blank: the reported EC50 of Cc1cccc(C(c2cccc(NS(C)(=O)=O)c2)c2c[nH]cn2)c1C (single isomer, unassigned) [44-B] is ____.
10 to 50 nM

Fill in the blank: the reported EC50 of Cc1cccc(C(c2c[nH]cn2)c2cccc(NS(C)(=O)=O)c2F)c1C (centres unmarked) [compound 51] is ____.
50 to 250 nM

Fill in the blank: the reported EC50 of Cc1cccc(C(c2cccc(NC(=O)CC3CCCO3)c2)c2c[nH]cn2)c1C (centres unmarked) [compound 153] is ____.
10 to 50 nM

Fill in the blank: the reported EC50 of Cc1cccc(C(Cc2ccc(NC(=O)NC3CCOC3)cc2)c2c[nH]cn2)c1C (centres unmarked) [compound 198] is ____.
10 to 50 nM

Fill in the blank: the reported EC50 of Cc1cccc(C(Cc2ccc(C(C)C(=O)O)cc2)c2c[nH]cn2)c1C (single isomer, unassigned) [174-B] is ____.
10 to 50 nM

Fill in the blank: the reported EC50 of Cc1cccc(C(c2cccc(NC(=O)CC3CCOC3)c2)c2c[nH]cn2)c1C (centres unmarked) [compound 73] is ____.
10 to 50 nM
